- Measured On: T1, human importin α3 (intact, with the IBB domain) (human, UniProt O00629 1-521)
- T1 construct: human importin α3 (KPNA4), intact protein with the IBB domain; codon-optimized synthetic DNA in the vector pHTP1; also called Impα3; KPNA4; source: E. coli BL21 (DE3), purified (as for ΔImpα3)
- T1 sequence (looked up): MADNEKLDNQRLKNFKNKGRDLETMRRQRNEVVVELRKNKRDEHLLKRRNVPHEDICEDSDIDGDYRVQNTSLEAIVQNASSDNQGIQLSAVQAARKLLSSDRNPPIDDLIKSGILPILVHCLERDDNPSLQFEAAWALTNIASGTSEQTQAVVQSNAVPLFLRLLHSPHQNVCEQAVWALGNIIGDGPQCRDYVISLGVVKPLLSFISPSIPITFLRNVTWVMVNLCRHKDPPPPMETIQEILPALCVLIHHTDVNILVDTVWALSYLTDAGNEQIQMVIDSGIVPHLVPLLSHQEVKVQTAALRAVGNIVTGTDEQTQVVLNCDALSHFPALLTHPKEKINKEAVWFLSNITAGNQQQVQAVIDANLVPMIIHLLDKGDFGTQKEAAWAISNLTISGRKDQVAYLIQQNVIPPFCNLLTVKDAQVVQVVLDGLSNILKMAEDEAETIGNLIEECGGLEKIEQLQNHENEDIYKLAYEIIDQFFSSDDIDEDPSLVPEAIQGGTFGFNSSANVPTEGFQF
- Assay Comment: ITC; Impα3 or ΔImpα3 (10–20 μM) in the cell, NLS-NUPR1 peptide (150–300 μM) in the syringe; Tris 50 mM, pH 8; 298 K; single ligand binding site (1:1) model, n gives the fraction of binding-competent protein
- Particulars: both partners purified
Measurement Type: log10 of Kd (log10 of the value in µM)

# Binder, log10 of Kd
data = [
    ("Ac-YTNRPSPGGHERKLVEKLQNSE-NH2 (tyrosine introduced at the N terminus for absorbance measurements; not a residue of NUPR1; also called T68E peptide; Thr68Glu; source: synthetic peptide (NZYtech, purity 95%)) [NLS-NUPR1 peptide T68E (phospho-mimetic)]", 1.34),
    ("Ac-YTNRPSPGGHERALVTKLQNSE-NH2 (tyrosine introduced at the N terminus for absorbance measurements; not a residue of NUPR1; also called K65A peptide; Lys65Ala; source: synthetic peptide (NZYtech, purity 95%)) [NLS-NUPR1 peptide K65A]", 0.59),
    ("Ac-YTNRPSPGGHERKLVTALQNSE-NH2 (tyrosine introduced at the N terminus for absorbance measurements; not a residue of NUPR1; also called K69A peptide; Lys69Ala; source: synthetic peptide (NZYtech, purity 95%)) [NLS-NUPR1 peptide K69A]", 1.04),
    ("Ac-YTNRPSPGGHERALVEKLQNSE-NH2 (tyrosine introduced at the N terminus for absorbance measurements; not a residue of NUPR1; also called K65AT68E peptide; source: synthetic peptide (NZYtech, purity 95%)) [NLS-NUPR1 peptide K65AT68E]", 1.32),
    ("Ac-YTNRPSPGGHERKLVEALQNSE-NH2 (tyrosine introduced at the N terminus for absorbance measurements; not a residue of NUPR1; also called T68EK69A peptide; source: synthetic peptide (NZYtech, purity 95%)) [NLS-NUPR1 peptide T68EK69A]", 1.23),
    ("Ac-YTNRPSPGGHERKLVTKLQNSE-NH2 (tyrosine introduced at the N terminus for absorbance measurements; not a residue of NUPR1; The added Tyr stands where NUPR1 has residue 53; also called wt; wt peptide; source: synthetic peptide (NZYtech, purity 95%)) [wild-type NLS-NUPR1 peptide (residues 54-74 of NUPR1 with an added N-terminal Tyr)]", 0.23),
]

Measured values drawn from paper PMC7565984 for this set.
